test target: NS3 (Hepatitis C virus, UniProt A3EZJ3)
Sequence (A3EZJ3 whole entry): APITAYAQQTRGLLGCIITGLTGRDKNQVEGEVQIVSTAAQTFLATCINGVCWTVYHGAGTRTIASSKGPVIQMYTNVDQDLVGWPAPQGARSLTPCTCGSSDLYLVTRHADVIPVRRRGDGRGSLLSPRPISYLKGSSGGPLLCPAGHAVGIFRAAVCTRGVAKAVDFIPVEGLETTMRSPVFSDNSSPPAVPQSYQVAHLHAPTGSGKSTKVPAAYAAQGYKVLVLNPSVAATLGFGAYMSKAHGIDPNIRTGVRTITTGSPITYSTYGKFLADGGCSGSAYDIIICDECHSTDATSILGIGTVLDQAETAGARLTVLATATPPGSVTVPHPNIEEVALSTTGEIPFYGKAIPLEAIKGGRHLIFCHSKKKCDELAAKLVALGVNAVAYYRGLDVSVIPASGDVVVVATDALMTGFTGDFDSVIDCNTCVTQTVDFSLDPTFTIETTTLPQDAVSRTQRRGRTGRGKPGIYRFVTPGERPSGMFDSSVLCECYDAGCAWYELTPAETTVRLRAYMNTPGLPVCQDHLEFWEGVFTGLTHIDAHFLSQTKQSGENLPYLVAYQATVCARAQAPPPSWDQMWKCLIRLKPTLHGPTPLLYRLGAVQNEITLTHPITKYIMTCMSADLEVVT
assay text: Inhibitory activity against hepatitis C virus (HCV) NS3 protease in the presence of Zn2+.
Set-up: species or system Hepacivirus hominis
quantity: pIC50
Just the number, please; pIC50 means minus log10 of the concentration in mol/L.

Input: Bench note: what pIC50 did Cn1c(Cc2nc3ccc(C(N)=O)cc3[nH]2)nc2ccc(C(=O)Nc3ccc(C(=O)NC(CCC(=O)O)C(=O)O)cc3)cc21 (centres undefined) show?
Output: 4.77

Input: Bench note: what pIC50 did Cn1c(Cc2nc3cc(C(N)=O)ccc3[nH]2)nc2ccc(C(=O)NC(Cc3cccc(C(=O)O)c3)C(=O)O)cc21 (centres undefined) show?
Output: 4.60

Input: Bench note: what pIC50 did Cn1c(Cc2nc3ccc(C(N)=O)cc3[nH]2)nc2ccc(C(=O)NC(Cc3cc(OCC(=O)O)ccc3C(=O)O)C(=O)O)cc21 (centres undefined) show?
Output: 4.92

Input: Bench note: what pIC50 did Cn1c(Cc2nc3cc(C(N)=O)ccc3[nH]2)nc2ccc(C(=O)NCCc3ccc(OCC(=O)O)cc3)cc21 show?
Output: 4.80

These entries and their values trace back to ChEMBL document CHEMBL1133939.
